Numbers sourced from patent US7361659B2.

Answer each item with its documented melting point.
The answer is to be given in °C; state only the numeric part.

Record summary for "CN(C)CCNS(=O)(=O)c1cc(NC(=O)c2cnn3c(C(F)(F)F)cc(-c4ccc(C(F)(F)F)cc4)nc23)c(Cl)s1" : reported melting point = 198

Record summary for "Cc1cc(-c2cc(C(F)(F)F)n3ncc(C(=O)Nc4cc(S(=O)(=O)NC(C)(C)CO)sc4Cl)c3n2)ccc1C(F)(F)F" : reported melting point = 207

Record summary for "Cc1nc(NC(=O)c2cnn3c(C(F)(F)F)cc(-c4ccc(C(F)(F)F)c(Cl)c4)nc23)sc1S(N)(=O)=O" : reported melting point = 299

Record summary for "Cc1cc(-c2cc(C(F)F)n3ncc(C(=O)Nc4nc(C)c(S(=O)(=O)NC(C)(C)CO)s4)c3n2)ccc1C(F)(F)F" : reported melting point = 271

Record summary for "CN1CCN(S(=O)(=O)c2cc(NC(=O)c3cnn4c(C(F)(F)F)cc(-c5ccc(C(F)(F)F)cc5)nc34)c(Cl)s2)CC1" : reported melting point = 301

Record summary for O=C(Nc1cc(S(=O)(=O)N2CCC(O)C2)sc1Cl)c1cnn2c(C(F)(F)F)cc(-c3ccc(C(F)(F)F)cc3)nc12 (racemic) : reported melting point = 270

Record summary for "NS(=O)(=O)c1nnc(NC(=O)c2cnn3c(C(F)F)cc(-c4ccc(C(F)(F)F)cc4)nc23)s1" : reported melting point = 284

Record summary for "O=C(Nc1cc(S(=O)(=O)NCCO)sc1Cl)c1cnn2c(C(F)(F)F)cc(-c3ccc(C(F)(F)F)cc3)nc12" : reported melting point = 191

----------
OBSERVABLE: melting point (°C)
The answer is to be given in °C; state only the numeric part.

Record summary for "NS(=O)(=O)c1cc(NC(=O)c2cnn3c(C(F)(F)F)cc(-c4ccc(C(F)(F)F)cc4)nc23)c(Cl)s1" : reported melting point = 275

Record summary for "Cc1nc(NC(=O)c2cnn3c(C(F)(F)F)cc(-c4ccc(Cl)c(Cl)c4)nc23)sc1S(=O)(=O)NC(C)(C)CO" : reported melting point = 265

Record summary for "NCCNS(=O)(=O)c1cc(NC(=O)c2cnn3c(C(F)F)cc(-c4ccc(C(F)(F)F)cc4)nc23)c(Cl)s1" : reported melting point = 150

Record summary for "Cc1nc(NC(=O)c2cnn3c(C(F)F)cc(-c4ccc(C(F)(F)F)cc4)nc23)sc1S(=O)(=O)NC(CO)CO" : reported melting point = 217

Record summary for "Cc1nc(NC(=O)c2cnn3c(C(F)(F)F)cc(-c4ccc(C(F)(F)F)cc4)nc23)sc1S(=O)(=O)N(CCO)CCO" : reported melting point = 214

Record summary for "Cc1nc(NC(=O)c2cnn3c(C(F)(F)F)cc(-c4ccc(C(F)(F)F)c(Cl)c4)nc23)sc1S(=O)(=O)NC(C)(C)CO" : reported melting point = 274

----------
Answer each item with its documented melting point.
The answer is to be given in °C; state only the numeric part.

Record summary for Cc1nc(NC(=O)c2cnn3c(C(F)(F)F)cc(-c4ccc(C(F)(F)F)cc4)nc23)sc1S(=O)(=O)N1CCN(C)CC1 [Example 69] : reported melting point = 273

Record summary for CCOc1cc(-c2cc(C(F)(F)F)n3ncc(C(=O)Nc4nc(C)c(S(=O)(=O)NC(C)(CO)CO)s4)c3n2)ccc1C(F)(F)F [Example 53] : reported melting point = 220

Record summary for CCOc1cc(-c2cc(C(F)(F)F)n3ncc(C(=O)Nc4nc(C)c(S(N)(=O)=O)s4)c3n2)ccc1C(F)(F)F [Example 20] : reported melting point = 300

----------
Answer each item with its documented melting point.
The answer is to be given in °C; state only the numeric part.

Record summary for Cc1nc(NC(=O)c2cnn3c(C(F)(F)F)cc(-c4ccc(C(F)(F)F)cc4)nc23)sc1S(=O)(=O)N1CCC(O)C1 (racemic) : reported melting point = 300

Record summary for "Cc1nc(NC(=O)c2cnn3c(C(F)(F)F)cc(-c4ccc(C(F)(F)F)cc4)nc23)sc1S(=O)(=O)NCCO" : reported melting point = 166

Record summary for "Cc1nc(NC(=O)c2cnn3c(C(F)(F)F)cc(-c4ccc(Cl)c(Cl)c4)nc23)sc1S(N)(=O)=O" : reported melting point = 307

Record summary for "Cc1nc(NC(=O)c2cnn3c(C(F)F)cc(-c4ccc(C(F)(F)F)cc4)nc23)sc1S(N)(=O)=O" : reported melting point = 284

Record summary for O=C(Nc1cc(S(=O)(=O)N2CCC(O)C2)sc1Cl)c1cnn2c(C(F)F)cc(-c3ccc(C(F)(F)F)cc3)nc12 (racemic) : reported melting point = 274

Record summary for "NS(=O)(=O)c1cc(NC(=O)c2cnn3c(C(F)(F)F)cc(-c4ccc(Cl)cc4)nc23)c(Cl)s1" : reported melting point = 329

Record summary for "CC(C)(CO)NS(=O)(=O)c1cc(NC(=O)c2cnn3c(C(F)F)cc(-c4ccc(C(F)(F)F)cc4)nc23)c(Cl)s1" : reported melting point = 233

----------
Answer each item with its documented melting point.
The answer is to be given in °C; state only the numeric part.

Record summary for "CN(C)CCNS(=O)(=O)c1cc(NC(=O)c2cnn3c(C(F)F)cc(-c4ccc(C(F)(F)F)cc4)nc23)c(Cl)s1" : reported melting point = 162

Record summary for "Cc1cc(-c2cc(C(F)(F)F)n3ncc(C(=O)Nc4nc(C)c(S(N)(=O)=O)s4)c3n2)ccc1C(F)(F)F" : reported melting point = 309

Record summary for "Cc1cc(-c2cc(C(F)(F)F)n3ncc(C(=O)Nc4cc(S(N)(=O)=O)sc4Cl)c3n2)ccc1C(F)(F)F" : reported melting point = 283

Record summary for "O=C(Nc1cc(S(=O)(=O)NC(CO)CO)sc1Cl)c1cnn2c(C(F)(F)F)cc(-c3ccc(C(F)(F)F)cc3)nc12" : reported melting point = 225

Record summary for "Cc1nc(NC(=O)c2cnn3c(C(F)(F)F)cc(-c4ccc(Cl)cc4)nc23)sc1S(N)(=O)=O" : reported melting point = 305

Record summary for "Cc1nc(NC(=O)c2cnn3c(C(F)F)cc(-c4ccc(C(F)(F)F)cc4)nc23)sc1S(=O)(=O)NCCN(C)C" : reported melting point = 217

Record summary for "Cc1nc(NC(=O)c2cnn3c(C(F)F)cc(-c4ccc(C(F)(F)F)cc4)nc23)sc1S(=O)(=O)N(CCO)CCO" : reported melting point = 191

----------
# SYSTEM NAME: rat mGlu2 receptor (Rattus norvegicus, UniProt P31421)
# Sequence (P31421 19-872): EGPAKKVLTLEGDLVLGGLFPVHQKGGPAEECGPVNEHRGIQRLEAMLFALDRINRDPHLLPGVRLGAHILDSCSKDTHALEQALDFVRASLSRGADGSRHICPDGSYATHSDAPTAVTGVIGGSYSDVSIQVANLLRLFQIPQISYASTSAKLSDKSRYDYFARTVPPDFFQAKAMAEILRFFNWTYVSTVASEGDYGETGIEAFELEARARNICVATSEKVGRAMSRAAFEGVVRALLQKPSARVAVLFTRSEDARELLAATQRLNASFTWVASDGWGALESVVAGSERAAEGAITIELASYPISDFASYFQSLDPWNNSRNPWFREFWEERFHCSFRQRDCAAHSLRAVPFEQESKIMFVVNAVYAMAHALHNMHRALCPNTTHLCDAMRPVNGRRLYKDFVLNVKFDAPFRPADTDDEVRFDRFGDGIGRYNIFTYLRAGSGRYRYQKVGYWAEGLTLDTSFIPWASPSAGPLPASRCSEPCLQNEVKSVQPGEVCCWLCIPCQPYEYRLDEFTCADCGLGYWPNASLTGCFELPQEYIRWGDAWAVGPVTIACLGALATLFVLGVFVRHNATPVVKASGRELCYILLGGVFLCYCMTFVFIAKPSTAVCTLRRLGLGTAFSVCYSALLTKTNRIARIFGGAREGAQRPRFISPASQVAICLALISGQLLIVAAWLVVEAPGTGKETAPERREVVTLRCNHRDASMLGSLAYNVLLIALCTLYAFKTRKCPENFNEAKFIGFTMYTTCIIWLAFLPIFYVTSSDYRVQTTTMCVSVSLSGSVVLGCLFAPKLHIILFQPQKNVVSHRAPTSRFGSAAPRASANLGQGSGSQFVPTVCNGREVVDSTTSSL
OBSERVABLE: pKi
Field pKi (float): negative decimal logarithm of the concentration in molar.

The reported rat mGlu2 receptor (Rattus norvegicus, UniProt P31421) pKi of "NS(=O)(=O)c1cc(NC(=O)c2cnn3c(C(F)(F)F)cc(-c4ccc(C(F)(F)F)cc4)nc23)c(Cl)s1" is 8.16

The reported rat mGlu2 receptor (Rattus norvegicus, UniProt P31421) pKi of "NS(=O)(=O)c1nnc(NC(=O)c2cnn3c(C(F)F)cc(-c4ccc(C(F)(F)F)cc4)nc23)s1" is 6.85

----------
Answer each item with its documented melting point.
The answer is to be given in °C; state only the numeric part.

Record summary for "Cc1nc(NC(=O)c2cnn3c(C(F)F)cc(-c4ccc(C(F)(F)F)cc4)nc23)sc1S(=O)(=O)N1CCN(C)CC1" : reported melting point = 269

Record summary for "CC(C)(CO)NS(=O)(=O)c1cc(NC(=O)c2cnn3c(C(F)(F)F)cc(-c4ccc(Cl)cc4)nc23)c(Cl)s1" : reported melting point = 272

Record summary for "Cc1nc(NC(=O)c2cnn3c(C(F)(F)F)cc(-c4ccc(C(F)(F)F)cc4)nc23)sc1S(=O)(=O)NC(CO)CO" : reported melting point = 215

Record summary for "Cc1sc(S(N)(=O)=O)cc1NC(=O)c1cnn2c(C(F)(F)F)cc(-c3ccc(C(F)(F)F)cc3)nc12" : reported melting point = 297

Record summary for "NS(=O)(=O)c1nnc(NC(=O)c2cnn3c(C(F)(F)F)cc(-c4ccc(C(F)(F)F)cc4)nc23)s1" : reported melting point = 280

Record summary for "CN(CCO)S(=O)(=O)c1cc(NC(=O)c2cnn3c(C(F)F)cc(-c4ccc(C(F)(F)F)cc4)nc23)c(Cl)s1" : reported melting point = 231

Record summary for "CCOc1cc(-c2cc(C(F)(F)F)n3ncc(C(=O)Nc4cc(S(=O)(=O)NCCO)sc4Cl)c3n2)ccc1C(F)(F)F" : reported melting point = 250

Record summary for "NS(=O)(=O)c1cnc(NC(=O)c2cnn3c(C(F)(F)F)cc(-c4ccc(C(F)(F)F)cc4)nc23)s1" : reported melting point = 309

Record summary for "CC(CO)(CO)NS(=O)(=O)c1cc(NC(=O)c2cnn3c(C(F)(F)F)cc(-c4ccc(C(F)(F)F)cc4)nc23)c(Cl)s1" : reported melting point = 201

Record summary for "CN(CCO)S(=O)(=O)c1cc(NC(=O)c2cnn3c(C(F)(F)F)cc(-c4ccc(C(F)(F)F)cc4)nc23)c(Cl)s1" : reported melting point = 221

Record summary for "Cc1nc(NC(=O)c2cnn3c(C(F)F)cc(-c4ccc(C(F)(F)F)cc4)nc23)sc1S(=O)(=O)N(C)CCO" : reported melting point = 216

Record summary for "O=C(Nc1cc(S(=O)(=O)NCCO)sc1Cl)c1cnn2c(C(F)F)cc(-c3ccc(C(F)(F)F)cc3)nc12" : reported melting point = 209

Record summary for "Cc1nc(NC(=O)c2cnn3c(C(F)(F)F)cc(-c4ccc(C(F)(F)F)cc4)nc23)sc1S(=O)(=O)NC(C)(CO)CO" : reported melting point = 250

Record summary for "Cc1nc(NC(=O)c2cnn3c(C(F)F)cc(-c4ccc(C(F)(F)F)cc4)nc23)sc1S(=O)(=O)NC(C)(CO)CO" : reported melting point = 248

Record summary for "CC(C)(CO)NS(=O)(=O)c1cc(NC(=O)c2cnn3c(C(F)(F)F)cc(-c4ccc(C(F)(F)F)c(OCC(F)(F)F)c4)nc23)c(Cl)s1" : reported melting point = 264

Record summary for "Cc1nc(NC(=O)c2cnn3c(C(F)F)cc(-c4ccc(C(F)(F)F)cc4)nc23)sc1S(=O)(=O)NC(C)(C)CO" : reported melting point = 268

Record summary for "O=C(Nc1cc(S(=O)(=O)N(CCO)CCO)sc1Cl)c1cnn2c(C(F)F)cc(-c3ccc(C(F)(F)F)cc3)nc12" : reported melting point = 216

Record summary for "CCOc1cc(-c2cc(C(F)(F)F)n3ncc(C(=O)Nc4cc(S(=O)(=O)NC(C)(C)CO)sc4Cl)c3n2)ccc1C(F)(F)F" : reported melting point = 234

Record summary for "Cc1nc(NC(=O)c2cnn3c(C(F)(F)F)cc(-c4ccc(C(F)(F)F)cc4)nc23)sc1S(=O)(=O)N(C)CCO" : reported melting point = 266

Record summary for "Cc1sc(S(N)(=O)=O)cc1NC(=O)c1cnn2c(C(F)F)cc(-c3ccc(C(F)(F)F)cc3)nc12" : reported melting point = 313

Record summary for "Cc1nc(NC(=O)c2cnn3c(C(F)F)cc(-c4ccc(C(F)(F)F)cc4)nc23)sc1S(=O)(=O)NCCO" : reported melting point = 134

Record summary for "CC(C)(CO)NS(=O)(=O)c1cnc(NC(=O)c2cnn3c(C(F)F)cc(-c4ccc(C(F)(F)F)cc4)nc23)s1" : reported melting point = 280

Record summary for "CCOc1cc(-c2cc(C(F)(F)F)n3ncc(C(=O)Nc4nc(C)c(S(=O)(=O)NC(C)(C)CO)s4)c3n2)ccc1C(F)(F)F" : reported melting point = 276

Record summary for "Cc1sc(S(=O)(=O)NC(C)(C)CO)cc1NC(=O)c1cnn2c(C(F)F)cc(-c3ccc(C(F)(F)F)cc3)nc12" : reported melting point = 180

Record summary for "CC(CO)(CO)NS(=O)(=O)c1cc(NC(=O)c2cnn3c(C(F)F)cc(-c4ccc(C(F)(F)F)cc4)nc23)c(Cl)s1" : reported melting point = 237

Record summary for "Cc1sc(S(=O)(=O)NC(C)(C)CO)cc1NC(=O)c1cnn2c(C(F)(F)F)cc(-c3ccc(C(F)(F)F)cc3)nc12" : reported melting point = 225
